assay: Cytotoxicity in human H1HeLa cells assessed as reduction in cell viability incubated for 3 days by MTT assay; assay type: cell-based, H1-HeLa

- compound: "CC1CCc2c(sc3c2c(=O)n(-c2ccccc2)c2nncn32)C1 (configuration not stated)"
  unitsLabel: "µM"
  relationOperator: "="
  CC50 at 72 h: 69
- compound: "O=c1c2c3c(sc2n2cnnc2n1-c1ccccc1)CCCC3"
  unitsLabel: "µM"
  relationOperator: ">"
  CC50 at 72 h: 100
- compound: "Cc1ccc(-n2c(=O)c3c4c(sc3n3cnnc23)CC(C(C)(C)C)CC4)cc1 (configuration not stated)"
  unitsLabel: "µM"
  relationOperator: "="
  CC50 at 72 h: 11.1
- compound: "CC1(C)CCc2c(sc3c2c(=O)n(-c2ccccc2)c2nncn32)C1"
  unitsLabel: "µM"
  relationOperator: "="
  CC50 at 72 h: 76.5
- compound: "CC(C)(C)C1CCc2c(sc3c2c(=O)n(-c2ccccc2Cl)c2nncn32)C1 (configuration not stated)"
  unitsLabel: "µM"
  relationOperator: "="
  CC50 at 72 h: 20.7
- compound: "Cc1ccc(-c2ccc(-n3c(=O)c4c5c(sc4n4cnnc34)CC(C(C)(C)C)CC5)cc2)cc1 (configuration not stated)"
  unitsLabel: "µM"
  relationOperator: "="
  CC50 at 72 h: 16.9
- compound: "CC(C)(C)C1CCc2c(sc3c2c(=O)n(-c2ccc(C(F)(F)F)cc2)c2nncn32)C1 (configuration not stated)"
  unitsLabel: "µM"
  relationOperator: "="
  CC50 at 72 h: 31.4
